EXPERIMENT SUMMARY: Z-E isomerization half-life by UV/Vis spectrophotometry after 365 nm irradiation
Format: physicochemical
TEST CONDITIONS: DMSO, RT, after 365 nm 5 min
Where a name gives a salt, the structure may show the parent alone.
Consider the reported τ1/2 (DMSO), Z-E isomerization half-life of an entry and match it to a band in low interval = under 2 h, middle interval = from 2 h up to 20 h, high interval = 20 h and over

>>> assigned_class("c1ccc(/N=N/c2ccccc2OCCN2CCOCC2)cc1")
"middle interval"
>>> assigned_class("Cl.Fc1ccccc1N=Nc1c(F)cc(OCCN2CCOCC2)cc1F [Compound 20e]")
"high interval"
>>> assigned_class("Cc1cnc(/N=N/c2ccc(OCCN3CCOCC3)cc2)s1 [Compound 25b]")
"low interval"
>>> assigned_class("Cl.Fc1cccc(F)c1N=Nc1c(F)cc(OCCN2CCOCC2)cc1F [Compound 20h]")
"high interval"
>>> assigned_class("c1ccc(/N=N/c2ccc(OCCN3CCOCC3)cc2)cc1 [Compound 1, Ethercaine hydrochloride]")
"middle interval"
>>> assigned_class("c1csc(/N=N/c2ccc(OCCN3CCOCC3)cc2)n1 [Compound 25a]")
"low interval"
>>> assigned_class("CCN(CC)CCOc1ccc(N=Nc2ccccc2)cc1.Cl")
"middle interval"
>>> assigned_class("Cl.Fc1ccccc1N=Nc1ccc(OCCN2CCOCC2)cc1F [Compound 20d]")
"middle interval"
>>> assigned_class("Cl.Fc1cccc(F)c1N=Nc1ccc(OCCN2CCOCC2)cc1 [Compound 20f]")
"high interval"

====

EXPERIMENT SUMMARY: Solubility in water / aqueous solutions
Assay type: physicochemical
TEST CONDITIONS: water
PROPERTY LABEL: solubility

>>> value_reported("c1csc(/N=N/c2ccc(OCCN3CCOCC3)cc2)n1 [Compound 25a]")
"> 100 mg/mL"

====

Tested on: rabbit eye cornea
EXPERIMENT SUMMARY: Surface anesthesia on the rabbit cornea, Regnier method (Regnier index)
Format: in vivo
TEST CONDITIONS: 1% solution, 0.2 mL instilled, solution irradiated with UV 365 nm (Z-form predominance), mean ± SD
Listed here: items and their measured Local Anesthetic Activity (Regnier Index, Min—13, Max—1300) Under Irradiation (λ = 365 nm).
PROPERTY LABEL: Local Anesthetic Activity (Regnier Index, Min—13, Max—1300) Under Irradiation (λ = 365 nm)

>>> value_reported("Cl.Fc1ccccc1N=Nc1c(F)cc(OCCN2CCOCC2)cc1F [Compound 20e]")
"59 ± 18 (n = 4)"
>>> value_reported("Cl.Fc1cccc(F)c1N=Nc1c(F)cc(OCCN2CCOCC2)cc1F [Compound 20h]")
"35 ± 7 (n = 4)"
>>> value_reported("Cl.Fc1cc(OCCN2CCOCC2)ccc1N=Nc1c(F)cccc1F [Compound 20g]")
"45 ± 9 (n = 4)"
>>> value_reported("Cl.Fc1cc(OCCN2CCOCC2)ccc1N=Nc1ccccc1 [Compound 20a]")
"64 ± 15 (n = 4)"
>>> value_reported("Cl.Fc1cccc(F)c1N=Nc1ccc(OCCN2CCOCC2)cc1 [Compound 20f]")
"76 ± 19 (n = 4)"

====

EXPERIMENT SUMMARY: Z-E isomerization half-life by UV/Vis spectrophotometry after 365 nm irradiation
Assay type: physicochemical
TEST CONDITIONS: aqueous 4% Kolliphor ELP solution
Counter-ions that a name gives are not always drawn.
Listed here: items and their measured τ1/2 (Aqueous Kolliphor ELP), Z-E isomerization half-life.
PROPERTY LABEL: τ1/2 (Aqueous Kolliphor ELP), Z-E isomerization half-life (h)

>>> value_reported("c1csc(/N=N/c2ccc(OCCN3CCOCC3)cc2)n1 [Compound 25a]")
0.217
>>> value_reported("Cl.Fc1ccccc1N=Nc1ccc(OCCN2CCOCC2)cc1 [Compound 20c]")
0.4
>>> value_reported("c1ccc(/N=N/c2cccc(OCCN3CCOCC3)c2)cc1 [Compound 9b]")
437
>>> value_reported("Cl.Fc1ccccc1N=Nc1c(F)cc(OCCN2CCOCC2)cc1F [Compound 20e]")
60
>>> value_reported("Cl.Fc1cc(OCCN2CCOCC2)ccc1N=Nc1ccccc1 [Compound 20a]")
2.5
>>> value_reported("Cl.Fc1cc(OCCN2CCOCC2)ccc1N=Nc1c(F)cccc1F [Compound 20g]")
5.0
>>> value_reported("c1ccc(/N=N/c2ccc(OCCN3CCOCC3)cc2)cc1 [Compound 1, Ethercaine hydrochloride]")
0.833
>>> value_reported("Cc1cnc(/N=N/c2ccc(OCCN3CCOCC3)cc2)s1 [Compound 25b]")
0.067
>>> value_reported("Cl.Fc1ccccc1N=Nc1ccc(OCCN2CCOCC2)cc1F [Compound 20d]")
2.3
>>> value_reported("Cl.Fc1cccc(F)c1N=Nc1c(F)cc(OCCN2CCOCC2)cc1F [Compound 20h]")
281
>>> value_reported("Cl.Fc1cc(OCCN2CCOCC2)cc(F)c1N=Nc1ccccc1 [Compound 20b]")
1.9
>>> value_reported("c1ccc(/N=N/c2ccccc2OCCN2CCOCC2)cc1 [Compound 9a]")
125
>>> value_reported("Cl.Fc1cccc(F)c1N=Nc1ccc(OCCN2CCOCC2)cc1 [Compound 20f]")
1.0
>>> value_reported("CCN(CC)CCOc1ccc(N=Nc2ccccc2)cc1.Cl [Compound 16]")
6.0
>>> value_reported("O=C(CN1CCOCC1)Nc1ccc(/N=N/c2ccccc2)cc1 [Compound 2]")
0.517

====

EXPERIMENT SUMMARY: Z-E isomerization half-life by UV/Vis spectrophotometry after 365 nm irradiation
Format: physicochemical
TEST CONDITIONS: DMSO, RT, after 365 nm 5 min
PROPERTY LABEL: τ1/2 (DMSO), Z-E isomerization half-life

>>> value_reported("c1ccc(/N=N/c2cccc(OCCN3CCOCC3)c2)cc1")
"26.8 h"
>>> value_reported("Cl.Fc1ccccc1N=Nc1ccc(OCCN2CCOCC2)cc1 [Compound 20c]")
"3.6 h"
>>> value_reported("O=C(CN1CCOCC1)Nc1ccc(/N=N/c2ccccc2)cc1")
"30.5 h"
>>> value_reported("Cl.Fc1cc(OCCN2CCOCC2)ccc1N=Nc1ccccc1 [Compound 20a]")
"7.8 h"
>>> value_reported("CN1CCN(CCOc2ccc(/N=N/c3ccccc3)cc2)CC1")
"18.6 h"
>>> value_reported("Cl.Fc1cc(OCCN2CCOCC2)ccc1N=Nc1c(F)cccc1F [Compound 20g]")
"137 h"
>>> value_reported("Cl.Fc1cc(OCCN2CCOCC2)cc(F)c1N=Nc1ccccc1 [Compound 20b]")
"456 h"

====

EXPERIMENT SUMMARY: In vitro cytotoxicity, MTT test, 24 h incubation
Type: cell-based, human
TEST CONDITIONS: human, dermal fibroblast cells (DF2), DF2 fibroblasts
Where a name gives a salt, the structure may show the parent alone.
PROPERTY LABEL: IC50 at 24 h (µM)

>>> value_reported("CCN(CC)CCOc1ccc(N=Nc2ccccc2)cc1.Cl")
90
>>> value_reported("c1csc(/N=N/c2ccc(OCCN3CCOCC3)cc2)n1 [Compound 25a]")
200
>>> value_reported("c1ccc(/N=N/c2ccc(OCCN3CCOCC3)cc2)cc1 [Compound 1, Ethercaine hydrochloride]")
210
>>> value_reported("Cc1cnc(/N=N/c2ccc(OCCN3CCOCC3)cc2)s1 [Compound 25b]")
440
>>> value_reported("c1ccc(/N=N/c2cccc(OCCN3CCOCC3)c2)cc1")
240
>>> value_reported("CN1CCN(CCOc2ccc(/N=N/c3ccccc3)cc2)CC1")
60

====

Test system: human dermal fibroblasts (DF2)
EXPERIMENT SUMMARY: In vitro cytotoxicity, MTT test, 24 h incubation
Format: cell-based
PROPERTY LABEL: IC50 (µM)

>>> value_reported("Cl.Fc1ccccc1N=Nc1ccc(OCCN2CCOCC2)cc1F [Compound 20d]")
190
>>> value_reported("Cl.Fc1cc(OCCN2CCOCC2)ccc1N=Nc1ccccc1 [Compound 20a]")
190
>>> value_reported("Cl.Fc1ccccc1N=Nc1ccc(OCCN2CCOCC2)cc1 [Compound 20c]")
190
>>> value_reported("Cl.Fc1cc(OCCN2CCOCC2)ccc1N=Nc1c(F)cccc1F [Compound 20g]")
180
>>> value_reported("Cl.Fc1cccc(F)c1N=Nc1c(F)cc(OCCN2CCOCC2)cc1F [Compound 20h]")
440
>>> value_reported("Cl.Fc1cc(OCCN2CCOCC2)cc(F)c1N=Nc1ccccc1 [Compound 20b]")
180
>>> value_reported("Cl.Fc1ccccc1N=Nc1c(F)cc(OCCN2CCOCC2)cc1F [Compound 20e]")
190
>>> value_reported("Cl.Fc1cccc(F)c1N=Nc1ccc(OCCN2CCOCC2)cc1 [Compound 20f]")
210

====

EXPERIMENT SUMMARY: In vitro cytotoxicity, MTT test, 24 h incubation
Format: cell-based, human
TEST CONDITIONS: human, dermal fibroblast cells (DF2), DF2 fibroblasts
PROPERTY LABEL: IC50 at 24 h

>>> value_reported("c1ccc(/N=N/c2ccccc2OCCN2CCOCC2)cc1 [Compound 9a]")
"> 1000 µM"
>>> value_reported("O=C(CN1CCOCC1)Nc1ccc(/N=N/c2ccccc2)cc1 [Compound 2]")
"> 200 µM"
>>> value_reported("CCN(CC)CC(=O)Nc1c(C)cccc1C [Lidocaine 2%, Lidocaine]")
"> 5000 µM"
